Reported IC50 values follow for various molecules
# Tested on: IL-1β release, THP-1 cells
# ASSAY SUMMARY: IL-1β release assay in differentiated THP-1 cells stimulated with BzATP (Example 9)
# Assay type: cell-based
# ASSAY SETUP: Homo sapiens; THP-1 cells, BzATP 250 uM, four parameter logistic fit
Give just the numeric value; nM need not be written.

Which IC50 value is on record for "O=C(Cc1ccc(C(F)(F)F)c(F)c1)Nc1cccc2c1CCN(C(=O)[C@H]1COc3ccccc3O1)C2" ?
145

More entries:
Which IC50 value is on record for O=C(Cc1ccc(C(F)(F)F)c(F)c1)Nc1cccc2c1CCN(C(=O)C1CCOC1)C2 (stereo not shown) ?
443
